src = patent US5118811A

Molecular target: prolyl endopeptidase (Rattus norvegicus)
Construct: prolyl endopeptidase extracted from rat brain; from tissue; host or cells: rat brain
Sequence (O70196 whole entry): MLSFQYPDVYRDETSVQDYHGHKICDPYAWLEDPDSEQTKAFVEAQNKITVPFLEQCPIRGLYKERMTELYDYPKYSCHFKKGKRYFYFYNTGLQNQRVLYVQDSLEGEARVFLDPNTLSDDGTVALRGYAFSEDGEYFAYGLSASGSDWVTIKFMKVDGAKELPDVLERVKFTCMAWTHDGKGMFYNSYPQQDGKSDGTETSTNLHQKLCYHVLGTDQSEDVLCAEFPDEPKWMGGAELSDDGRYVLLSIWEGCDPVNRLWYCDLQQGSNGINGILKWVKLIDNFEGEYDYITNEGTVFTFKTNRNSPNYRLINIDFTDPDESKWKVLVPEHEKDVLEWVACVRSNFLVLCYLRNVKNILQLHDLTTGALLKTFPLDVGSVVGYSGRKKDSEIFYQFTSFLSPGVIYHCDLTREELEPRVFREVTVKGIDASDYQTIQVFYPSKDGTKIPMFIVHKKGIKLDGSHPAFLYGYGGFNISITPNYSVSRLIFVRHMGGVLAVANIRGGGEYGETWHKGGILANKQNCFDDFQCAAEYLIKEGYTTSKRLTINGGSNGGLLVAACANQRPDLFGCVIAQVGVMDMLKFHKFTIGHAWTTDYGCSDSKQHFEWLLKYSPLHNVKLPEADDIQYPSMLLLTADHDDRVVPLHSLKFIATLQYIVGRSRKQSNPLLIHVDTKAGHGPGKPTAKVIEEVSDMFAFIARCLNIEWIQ
Test: Prolyl Endopeptidase-Inhibitory Activity
Type: biochemical
Settings: prolyl endopeptidase extracted from rat brain, pH 7.0, 30° C., preincubated 30 minutes, 1 hour
RESULT TYPE: IC50 (nM)
// return numeric value only (unit: nM, not printed)

{"SMILES RECORD": "N#C[C@@H]1CCCN1C(=O)CCC(=O)NCc1ccc(Cl)cc1", "EXPERIMENTAL TARGET": "prolyl endopeptidase (Rattus norvegicus)", "REPORTED MEASUREMENT": 10}
{"SMILES RECORD": "O=C[C@@H]1CCCN1C(=O)[C@@H]1CCCN1C(=O)CN1CCCC1=O", "EXPERIMENTAL TARGET": "prolyl endopeptidase (Rattus norvegicus)", "REPORTED MEASUREMENT": 0.4}

Problem: Under prolyl endopeptidase (Rattus norvegicus): IC50 value of `CC(=O)ON=C[C@@H]1CSCN1C(=O)[C@@H]1CSCN1C(=O)OCc1ccccc1` ?
Result: 310

Problem: Under prolyl endopeptidase (Rattus norvegicus): IC50 value of `O=C[C@@H]1CCCN1C(=O)CCC(=O)N1CCCC1=O` ?
Result: 70

Problem: Under prolyl endopeptidase (Rattus norvegicus): IC50 value of `N#C[C@@H]1CSCN1C(=O)[C@@H]1CCCN1C(=O)CN1CCCC1=O` ?
Result: 34

----------
The following are reported log10 IC50 results, target or system prolyl endopeptidase (Rattus norvegicus).
// stored as log10 of IC50 expressed in nM

Would you please look over these solved cases?
{"SMILES RECORD": "CC(=O)ON=C[C@@H]1CSCN1C(=O)[C@@H]1CCCN1C(=O)OCc1ccccc1", "REPORTED MEASUREMENT": 2.00}
{"SMILES RECORD": "O=C[C@@H]1CCCN1C(=O)[C@@H]1CSCN1C(=O)CN1CCCC1=O", "REPORTED MEASUREMENT": 0.18}
{"SMILES RECORD": "O=C1CCCN1CC(=O)N1CCC[C@H]1C(=O)N1CCSC1", "REPORTED MEASUREMENT": 2.30}
{"SMILES RECORD": "O=C[C@@H]1CSCN1C(=O)[C@@H]1CCCN1C(=O)CN1CCCC1=O", "REPORTED MEASUREMENT": 0.48}
{"SMILES RECORD": "N#C[C@@H]1CSCN1C(=O)[C@@H]1CSCN1C(=O)OCc1ccccc1", "REPORTED MEASUREMENT": 0.51}

Then this compound:
Problem: Under prolyl endopeptidase (Rattus norvegicus): log10 IC50 value of `O=C([C@@H]1CCCN1C(=O)OCc1ccccc1)N1CCC[C@H]1C=NOCc1ccccc1` ?
Result: 1.60

----------
Target: trypsin (Bos taurus)
Construct: purchased Sigma; host or cells: bovine pancreas
Sequence (P00760 24-246): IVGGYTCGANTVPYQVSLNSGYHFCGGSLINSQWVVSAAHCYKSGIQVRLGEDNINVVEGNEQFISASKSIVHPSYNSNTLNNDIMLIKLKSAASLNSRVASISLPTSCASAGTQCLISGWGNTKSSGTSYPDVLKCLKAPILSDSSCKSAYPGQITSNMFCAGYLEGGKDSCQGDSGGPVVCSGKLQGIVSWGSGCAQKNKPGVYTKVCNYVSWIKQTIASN
Test: Trypsin-Inhibitory Activity
Format: biochemical, bovine
Conditions: 1 × 10^-6 M; read-out: Inhibition rate, trypsin
RESULT TYPE: inhibition at 1 µM

Would you please look over these solved cases?
{"SMILES RECORD": "O=C[C@@H]1CCCN1C(=O)CCC(=O)NCCCN1CCCC1=O", "RESULT TYPE": "inhibition at 1 µM", "REPORTED MEASUREMENT": "0%"}
{"SMILES RECORD": "N#C[C@@H]1CCCN1C(=O)CCC(=O)NCc1ccc(Cl)cc1", "RESULT TYPE": "inhibition at 1 µM", "REPORTED MEASUREMENT": "0%"}
{"SMILES RECORD": "CC(=O)ON=C[C@@H]1CCCN1C(=O)[C@@H]1CCCN1C(=O)OCc1ccccc1", "RESULT TYPE": "inhibition at 1 µM", "REPORTED MEASUREMENT": "0%"}

Then this compound:
Problem: Which inhibition at 1 µM value belongs to `CC(=O)ON=C[C@@H]1CCCN1C(=O)CCC(=O)NCc1ccc(Cl)cc1` ?
Result: 10%
